pIC50: −log10 of the molar value.
Assay read-out pIC50 on UniProt Q9Y2K2; records merged from the literature.

[[record]]
compound = "COc1c(F)cccc1-c1c[nH]c2ncc(-c3cccc(S(=O)(=O)N(C)C)c3)cc12"
reported = "< 7.00"

[[record]]
compound = "CCOC(=O)C1(C)CCN(CC(O)COc2ccn3c(-c4cc(OC)c(C(=O)NC5CC5)c(OC(F)F)c4)cnc3c2)CC1 (stereo not drawn)"
reported = "8.00 to 11.00"

[[record]]
compound = "CCN(CC)CCOc1ccn2c(-c3cc4c(c(OC)c3)C(=O)N(CC(F)(F)F)CC4)cnc2c1"
reported = "8.00 to 11.00"


Measured pIC50, COc1cc(-c2cnc3cc(OCCCN4CCCCC4)ccn23)cc(OC(F)F)c1C(=O)NCC#N : 8.00 to 11.00

Measured pIC50, COc1cc(-c2cnc3cc(OC4CCOC4)ccn23)cc(OC(F)F)c1C(=O)NC1CC1 (stereo not drawn) : 8.00 to 11.00

Measured pIC50, COc1cc(-c2cnc3cc(OCCNCCO)ccn23)cc(OC(F)F)c1C(=O)NC1CC1 : 8.00 to 11.00

Measured pIC50, COCCOCCOc1ccn2c(-c3cc(OC)c(C(=O)NC4CC4)c(OC(F)F)c3)cnc2c1 : 8.00 to 11.00

Measured pIC50, COc1cc(-c2cnc3cc(OCC4CN(C)CCO4)ccn23)cc(OC(F)F)c1C(=O)NC1CC1 (stereo not drawn) : 8.00 to 11.00

Measured pIC50, COc1cc(-c2c3c(C#N)cc(-c4cnn(CC5CCCO5)c4)cc3nn2C)cc(OC(F)F)c1C(=O)NCC1(F)CC1 (stereo not drawn) : 8.09

Measured pIC50, COc1cc(-c2c3c(C#N)cc(-c4cnn(CC(C)(C)O)c4)cc3nn2C)cc(OC(F)F)c1C(=O)N[C@@H]1CC1(F)F : 9.15

Measured pIC50, COc1cc(-c2cnc3cc(OCC4CCCCN4C(C)=O)ccn23)cc(OC(F)F)c1C(=O)NC1CC1 (stereo not drawn) : 8.00 to 11.00

----------
Assay read-out IC50 on SIK3 (Homo sapiens, UniProt Q9Y2K2); records merged from the literature.
Sequence (Q9Y2K2 whole entry): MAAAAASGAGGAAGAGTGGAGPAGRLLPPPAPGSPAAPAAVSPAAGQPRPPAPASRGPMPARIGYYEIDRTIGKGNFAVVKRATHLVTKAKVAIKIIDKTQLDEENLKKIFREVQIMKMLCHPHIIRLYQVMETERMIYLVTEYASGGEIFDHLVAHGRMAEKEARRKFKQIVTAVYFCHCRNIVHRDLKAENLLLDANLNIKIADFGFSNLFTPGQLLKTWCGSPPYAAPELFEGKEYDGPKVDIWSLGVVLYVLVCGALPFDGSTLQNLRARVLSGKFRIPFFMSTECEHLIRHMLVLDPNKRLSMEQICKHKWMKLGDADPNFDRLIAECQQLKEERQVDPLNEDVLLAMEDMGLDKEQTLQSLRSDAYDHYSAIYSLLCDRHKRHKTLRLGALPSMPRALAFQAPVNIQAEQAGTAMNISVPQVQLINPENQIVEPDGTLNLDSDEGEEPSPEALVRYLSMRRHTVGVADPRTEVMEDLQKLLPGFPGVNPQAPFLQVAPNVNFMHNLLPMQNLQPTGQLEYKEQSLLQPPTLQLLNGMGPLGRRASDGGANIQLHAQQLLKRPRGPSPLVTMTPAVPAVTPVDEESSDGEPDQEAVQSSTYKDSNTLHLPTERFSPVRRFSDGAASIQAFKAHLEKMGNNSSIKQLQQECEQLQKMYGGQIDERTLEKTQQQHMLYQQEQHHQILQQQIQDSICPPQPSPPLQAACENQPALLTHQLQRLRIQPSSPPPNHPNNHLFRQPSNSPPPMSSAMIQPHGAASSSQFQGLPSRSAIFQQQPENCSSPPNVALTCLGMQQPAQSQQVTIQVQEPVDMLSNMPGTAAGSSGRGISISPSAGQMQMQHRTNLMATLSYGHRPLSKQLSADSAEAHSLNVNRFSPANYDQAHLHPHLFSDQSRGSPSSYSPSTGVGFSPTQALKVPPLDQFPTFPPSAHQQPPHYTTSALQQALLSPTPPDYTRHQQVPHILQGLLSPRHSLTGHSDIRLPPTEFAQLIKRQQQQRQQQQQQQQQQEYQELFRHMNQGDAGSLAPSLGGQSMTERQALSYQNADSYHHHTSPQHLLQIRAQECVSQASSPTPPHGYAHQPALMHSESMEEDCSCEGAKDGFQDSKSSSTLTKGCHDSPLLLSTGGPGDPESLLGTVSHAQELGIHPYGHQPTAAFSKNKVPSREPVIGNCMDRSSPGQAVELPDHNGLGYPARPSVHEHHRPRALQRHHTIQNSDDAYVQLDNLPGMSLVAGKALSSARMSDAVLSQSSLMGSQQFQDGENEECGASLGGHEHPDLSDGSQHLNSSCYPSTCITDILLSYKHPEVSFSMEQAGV

Here is how some compounds turned out for IC50.
[[record]]
compound = "CCOc1cc(-c2cnc3cc(OCCN(C)C)ccn23)cc2c1C(=O)N(CC(F)(F)F)CC2"
measurement_type = "IC50"
reported = "100 to 500 nM"

[[record]]
compound = "COc1cc(-c2cnc3cc(OCc4nncn4C)ccn23)cc(OC(F)F)c1C(=O)NC1CC1"
measurement_type = "IC50"
reported = "0.01 to 10 nM"

[[record]]
compound = "COc1cc(-c2c3c(C#N)cc(-c4cnn(C[C@H](O)C(F)(F)F)c4)cc3nn2C)cc(OC(F)F)c1C(=O)N[C@@H]1CC1(F)F"
measurement_type = "IC50"
reported = "1.6 nM"

[[record]]
compound = "COc1cc(-c2cnc3cc(OCCN4CC(F)(F)C4)ccn23)cc(OC(F)F)c1C(=O)NC1CC1"
measurement_type = "IC50"
reported = "0.01 to 10 nM"

[[record]]
compound = "COc1cc(-c2cnc3cc(OCCN(C)C)ccn23)cc2c1C(=O)N(CC(F)(F)F)CC2"
measurement_type = "IC50"
reported = "10 to 100 nM"

[[record]]
compound = "COc1cc(-c2cnc3cc(OCCN4CCOC[C@H]4C)ccn23)cc(OC(F)F)c1C(=O)NC1CC1"
measurement_type = "IC50"
reported = "0.01 to 10 nM"

[[record]]
compound = "CCOC(=O)C1(O)CCN(CC(O)COc2ccn3c(-c4cc(OC)c(C(=O)NC5CC5)c(OC(F)F)c4)cnc3c2)CC1 (stereo not drawn)"
measurement_type = "IC50"
reported = "0.01 to 10 nM"

[[record]]
compound = "COc1cc(-c2cnc3cc(OCCCN4CCc5ncccc5C4)ccn23)cc(OC(F)F)c1C(=O)NC1CC1"
measurement_type = "IC50"
reported = "0.01 to 10 nM"

[[record]]
compound = "COc1cc(-c2cnc3cc(OCCCN4CC(O)(C(F)(F)F)C4)ccn23)cc(OC(F)F)c1C(=O)NC1CC1"
measurement_type = "IC50"
reported = "0.01 to 10 nM"

[[record]]
compound = "COc1cc(-c2cnc3cc(OC4CC5(COC5)C4)ccn23)cc(OC(F)F)c1C(=O)NC1CC1"
measurement_type = "IC50"
reported = "0.01 to 10 nM"


Bench note, SIK3 (Homo sapiens, UniProt Q9Y2K2): entry COc1cc(-c2c3c(OC(F)F)cc(-c4cnn(C)c4)cc3nn2C)cc(OC(F)F)c1C(N)=O , its IC50 = 16.3 nM

Bench note, SIK3 (Homo sapiens, UniProt Q9Y2K2): entry COc1cc(-c2cnc3cc(OCC4CC4(F)F)ccn23)cc(OC(F)F)c1C(=O)NC1CC1 (stereo not drawn) , its IC50 = 0.01 to 10 nM

Bench note, SIK3 (Homo sapiens, UniProt Q9Y2K2): entry COc1cc(-c2cnc3cc(OCc4ncco4)ccn23)cc(OC(F)F)c1C(=O)NC1CC1 , its IC50 = 0.01 to 10 nM

Bench note, SIK3 (Homo sapiens, UniProt Q9Y2K2): entry COc1cc(-c2cnc3cc(OCC(C)(C)CO)ccn23)cc(OC(F)F)c1C(=O)NC1CC1 , its IC50 = 0.01 to 10 nM

Bench note, SIK3 (Homo sapiens, UniProt Q9Y2K2): entry COc1cc(-c2cnn3cc(OC(C)(C)CN4CC5(COC5)C4)ccc23)cc(OC(F)F)c1C(=O)N[C@@H]1C[C@@H]1F , its IC50 = 10 to 100 nM

Bench note, SIK3 (Homo sapiens, UniProt Q9Y2K2): entry COc1cc(-c2c3c(OCC4COC4)cc(-c4cnn(C)c4)cc3nn2C)cc(OC(F)F)c1C(=O)N1CC(O)(C(F)(F)F)C1 , its IC50 = 11.2 nM

Bench note, SIK3 (Homo sapiens, UniProt Q9Y2K2): entry COc1c(F)cc(F)cc1-c1c[nH]c2ncc(-c3cccc(S(=O)(=O)N(C)C(C)(C)C)c3)cc12 , its IC50 = > 100 nM

Bench note, SIK3 (Homo sapiens, UniProt Q9Y2K2): entry COc1cc(-c2cnc3cc(OC4CCN(C)C4)ccn23)cc(OC(F)F)c1C(=O)NC1CC1 (stereo not drawn) , its IC50 = 10 to 100 nM

Bench note, SIK3 (Homo sapiens, UniProt Q9Y2K2): entry COc1cc(-c2cnc3cc(OC[C@@H]4CCN(C(C)C)C4)ccn23)cc(OC(F)F)c1C(=O)NC1CC1 , its IC50 = 0.01 to 10 nM

Bench note, SIK3 (Homo sapiens, UniProt Q9Y2K2): entry COc1cc(-c2cnc3cc(OCCN4C[C@@H]5C[C@H]4CO5)ccn23)cc2c1C(=O)N(CC(F)(F)F)CC2 , its IC50 = 0.01 to 10 nM

Bench note, SIK3 (Homo sapiens, UniProt Q9Y2K2): entry COc1cc(-c2c3c(C#N)cc(-c4cc[nH]n4)cc3nn2C)cc(OC(F)F)c1C(=O)N[C@@H]1CC1(F)F , its IC50 = 1.6 nM

Bench note, SIK3 (Homo sapiens, UniProt Q9Y2K2): entry COc1cc(-c2cnc3cc(OCCN4CCOCC4)ccn23)cc(OC(F)F)c1C(=O)NCC(F)(F)F , its IC50 = 0.01 to 10 nM

Bench note, SIK3 (Homo sapiens, UniProt Q9Y2K2): entry COc1cc(-c2cnc3cc(OCCN(C)C)ccn23)cc(OC(F)F)c1C(=O)NCC(F)(F)F , its IC50 = 0.01 to 10 nM

Bench note, SIK3 (Homo sapiens, UniProt Q9Y2K2): entry COc1cc(-c2c3c(OC)cc(-c4cnn(C)c4)cc3nn2C)cc(OC(F)F)c1C(=O)N1CC(O)(C(F)(F)F)C1 , its IC50 = 3.8 nM

Bench note, SIK3 (Homo sapiens, UniProt Q9Y2K2): entry COc1cc(-c2cnc3cc(OCC4CCCC4)ccn23)cc(OC(F)F)c1C(=O)NC1CC1 , its IC50 = 0.01 to 10 nM

Bench note, SIK3 (Homo sapiens, UniProt Q9Y2K2): entry COc1c(F)cccc1-c1c[nH]c2nccc(-c3ccsc3)c12 , its IC50 = > 100 nM

Bench note, SIK3 (Homo sapiens, UniProt Q9Y2K2): entry COc1cc(-c2cnc3cc(OCCN4CC(F)(F)C4)ccn23)cc2c1C(=O)N(CC(F)(F)F)CC2 , its IC50 = 0.01 to 10 nM

Bench note, SIK3 (Homo sapiens, UniProt Q9Y2K2): entry COc1cc(-c2cnc3cc(OCCNc4ncccn4)ccn23)cc(OC(F)F)c1C(=O)NC1CC1 , its IC50 = 0.01 to 10 nM

Bench note, SIK3 (Homo sapiens, UniProt Q9Y2K2): entry O=C1c2c(cc(-c3cnc4cc(OCCN5CCOCC5)ccn34)cc2OC(F)F)CCN1CC(F)F , its IC50 = 0.01 to 10 nM

Bench note, SIK3 (Homo sapiens, UniProt Q9Y2K2): entry Cn1cc(-c2cc(C#N)c3c(-c4ccc(C(=O)N[C@@H]5CC5(F)F)c(OC(F)F)c4)n(C)nc3c2)cn1 , its IC50 = 2.4 nM
